Reported CC50 is given for each of the following compounds.
experiment: in vitro; conditions: human
Numbered stars: 1 amine (or outer) side, 2 acyl side, 3 side chain; on linkers, the order of the positions; unused ones are H or OH. Bridge positions count the residues as written; N and C are the ends. Square brackets hold non-standard residues; d marks the D form. Peptide text beside a SMILES is read from it. * marks the point of attachment. pTerphenylCO(4''-OnC5H11) = CCCCCOc1ccc(-c2ccc(-c3ccc(C(=O)*)cc3)cc2)cc1; Orn(4R-OH,5R-OH) = O=C([C@H](C[C@@H](O)[C@@H](O)N[*:3])N[*:1])[*:2]; hTyr(3S-OH,4S-OH) = N[C@H](C(=O)O)[C@H](O)[C@@H](O)c1ccc(O)cc1; Pro(3S-OH,4S-Me) = C[C@H]1CN[C@H](C(=O)O)[C@H]1O; Hyp = O=C(O)[C@@H]1C[C@@H](O)CN1

compound=COc1ccc2cc1Oc1ccc(cc1)C[C@H]1c3cc(c(OC)cc3CCN1C)Oc1c(OC)c(OC)cc3c1[C@H](C2)N(C)CC3 reported_property=CC50 measurement="34.7 µM"
compound=CC(C)(C)Cn1c(N)nc2ccc(-c3[nH]c(C(C)(C)C)nc3-c3ccc(F)cc3)nc21 reported_property=CC50 measurement="26.6 µM"
compound="CCCCCOc1ccc(-c2ccc(-c3ccc(C(=O)N[C@H]4C[C@@H](O)[C@@H](O)NC(=O)[C@@H]5[C@@H](O)[C@@H](C)CN5C(=O)[C@H]([C@@H](C)O)NC(=O)[C@H]([C@H](O)[C@@H](O)c5ccc(O)cc5)NC(=O)[C@@H]5C[C@@H](O)CN5C(=O)[C@H]([C@@H](C)O)NC4=O)cc3)cc2)cc1 [Compound 19, Anidulafungin] ({pTerphenylCO(4''-OnC5H11)}-[Orn(4R-OH,5R-OH)]T[Hyp][hTyr(3S-OH,4S-OH)]T[Pro(3S-OH,4S-Me)]; lactam 1-C)" reported_property=CC50 measurement="38.9 µM"
compound=CN(C)[C@@H]1C(O)=C(C(N)=O)C(=O)[C@@]2(O)C(O)=C3C(=O)c4c(O)cccc4[C@@](C)(O)[C@H]3C[C@@H]12 reported_property=CC50 measurement="> 50 µM"
compound="C[C@@H]1C[C@@H]([C@H](O)CC2CC(=O)NC(=O)C2)C(=O)[C@@H](C)C1 [Compound 25, Cycloheximide]" reported_property=CC50 measurement="2.48 µM"
compound=COc1cc(NC(=O)Nc2cccc(CNC(=O)O[C@H]3CCOC3)c2)ccc1-c1cnco1 reported_property=CC50 measurement="26.4 µM"

Here is another compound to look at.
## Task Any idea what CC50 was measured for `COc1cc2c3cc1Oc1c(OC)c(OC)cc4c1[C@@H](Cc1ccc(O)c(c1)Oc1ccc(cc1)C[C@@H]3N(C)CC2)N(C)CC4` ?
## Result 45.3 µM

###

Reported CC50 at 72 h is given for each of the following compounds.
experiment: Cytotoxicity in mammalian cells (MTT assay); settings: human, HFF cells

Worked cases, CC50 at 72 h given:
compound="O=C(Nc1ccc([N+](=O)[O-])cc1Cl)c1cc(Cl)ccc1O [Compound 1, Niclosamide]" measurement="35.5 µM"
compound=C=CCNc1nc(NCC=C)nc(N2CCN(C(c3ccc(F)cc3)c3ccc(F)cc3)CC2)n1 measurement="> 50 µM"
compound=CCN1CCN(Cc2ccc(Nc3ncc(F)c(-c4cc(F)c5nc(C)n(C(C)C)c5c4)n3)nc2)CC1 measurement="> 50 µM"

## Task Any idea what CC50 at 72 h was measured for `O=C1NCN(c2ccccc2)C12CCN(CCCC(c1ccc(F)cc1)c1ccc(F)cc1)CC2` ?
## Result > 50 µM

## Task Any idea what CC50 at 72 h was measured for O=c1[nH]c2ccccc2n1C1CCN(CCCC(c2ccc(F)cc2)c2ccc(F)cc2)CC1 [Compound 29, Pimozide] ?
## Result > 50 µM

## Task Any idea what CC50 at 72 h was measured for `CNC(=O)c1cc(Oc2ccc(NC(=O)Nc3ccc(Cl)c(C(F)(F)F)c3)cc2)ccn1` ?
## Result 12.4 µM

###

assay: in vitro; conditions: human
Reported CC50 at 72 h is given for each of the following compounds.
State the answer as a number, implicitly in µM.

Worked cases, CC50 at 72 h given:
smiles_code=Nc1nc(Nc2ccc3c(c2)CC[C@@H](N2CCCC2)CC3)nn1-c1cc2c(nn1)-c1ccccc1CCC2 value_unit=µM measurement=31.6
smiles_code=CNC(=O)c1cc(Oc2ccc(NC(=O)Nc3ccc(Cl)c(C(F)(F)F)c3)c(F)c2)ccn1 value_unit=µM measurement=11.6

## Task Any idea what CC50 at 72 h was measured for `CN(C)CCOc1ccc(/C(=C(/CCCl)c2ccccc2)c2ccccc2)cc1` ?
## Result 44.3

## Task Any idea what CC50 at 72 h was measured for `CCSc1ccc2c(c1)N(CCCN1CCN(C)CC1)c1ccccc1S2` ?
## Result 33.1

###

tested on: HFF cells; assay: Cytotoxicity in mammalian cells (MTT assay); conditions: read-out: CC50 ± SD against HFF cells; HFF, 72 h, MTT; highest tested concentration 50 μM; ± SD of two independent experiments
Reported CC50 is given for each of the following compounds.

Worked cases, CC50 given:
compound=CNCc1[cH-]ccc1CNc1ccnc2cc(Cl)ccc12.[Fe+2].c1cc[cH-]c1 reported_property=CC50 measurement="38.2 µM"
compound=C[C@@H](C1CCCCC1)n1c(-c2cc3c(cc2Br)OCO3)nc2cc(C(=O)Nc3ccc(C#N)cc3)ccc21 reported_property=CC50 measurement="> 50 µM"
compound="COc1cccc2c1CCCC2CCCN1CCN(C2CCCCC2)CC1 (stereo not shown)" reported_property=CC50 measurement="> 50 µM"

## Task Any idea what CC50 was measured for `COc1ccc2cc1Oc1ccc(cc1)C[C@H]1c3cc(c(OC)cc3CCN1C)Oc1c(O)c(OC)cc3c1[C@H](C2)N(C)CC3` ?
## Result 45 µM

###

test system: T. gondii tachyzoites (RH strain, clone 2F1); experiment: microbe, parasite or virus in culture; format: cell-based, Toxoplasma gondii; details: RH-2F1 tachyzoites in HFF, 72 h, β-galactosidase readout; ± SD of two independent experiments; read-out: EC50 ± SD against T. gondii tachyzoites
REPORTED_PROPERTY: pEC50
Bear in mind: pEC50 is minus log10 of a mol/L concentration; give just that figure.

Worked cases, pEC50 given:
compound="C[C@@H](C1CCCCC1)n1c(-c2cc3c(cc2Br)OCO3)nc2cc(C(=O)Nc3ccc(C#N)cc3)ccc21 [Compound 26, AZ3451]" measurement=6.04
compound="COc1cccc2c1CCCC2CCCN1CCN(C2CCCCC2)CC1 (stereo not shown) [Compound 23, PB 28]" measurement=6.31
compound="COc1ccc2cc1Oc1ccc(cc1)C[C@H]1c3cc(c(OC)cc3CCN1C)Oc1c(O)c(OC)cc3c1[C@H](C2)N(C)CC3 [Compound 20, Hanfangchin B]" measurement=6.08

Here is another compound to look at.
## Task Hello, I am looking for reported pEC50 with T. gondii tachyzoites (RH strain, clone 2F1) for CNCc1[cH-]ccc1CNc1ccnc2cc(Cl)ccc12.[Fe+2].c1cc[cH-]c1 [Compound 27, Desmethyl ferroquine] . Could you help?
## Result 6.27

###

experiment: Cytotoxicity in mammalian cells (MTT assay); conditions: human, HFF cells
REPORTED_PROPERTY: CC50 at 72 h (µM)
State the answer as a number, implicitly in µM.

molecule=O=C(O)c1ccc2c(c1)nc(Nc1cccc(Cl)c1)c1ccncc12 reported_property="CC50 at 72 h" measurement=38.4

Here is another molecule to look at.
## Task Any idea what CC50 at 72 h was measured for OC(CNCC(O)C1CCc2cc(F)ccc2O1)C1CCc2cc(F)ccc2O1 (centres unmarked) ?
## Result 37.1

###

Reported CC50 at 72 h is given for each of the following compounds.
assay: in vitro; settings: human

Worked cases, CC50 at 72 h given:
compound="COC(=O)C1=C(C)NC(C)=C(C(=O)OCCN2CCN(C(c3ccccc3)c3ccccc3)CC2)C1c1cccc([N+](=O)[O-])c1 (stereo not drawn)" measurement="> 50 µM"
compound=CO[C@H]1C[C@@H]2CC[C@@H](C)[C@@](O)(O2)C(=O)C(=O)N2CCCC[C@H]2C(=O)O[C@H]([C@H](C)C[C@@H]2CC[C@@H](O)[C@H](OC)C2)CC(=O)[C@H](C)/C=C(\C)[C@@H](O)[C@@H](OC)C(=O)[C@H](C)C[C@H](C)/C=C/C=C/C=C/1C measurement="> 50 µM"

Here is another compound to look at.
## Task Any idea what CC50 at 72 h was measured for `CCOc1ccc(Cc2nccc3cc(OCC)c(OCC)cc23)cc1OCC` ?
## Result > 50 µM

Reference source: paper PMC10328330
